Target: LRRK2 (G2019S mutation, GST-LRRK2 (amino acids 970-2527)) (Homo sapiens (Human), UniProt Q5S007, G2019S)
Sequence (Q5S007 970-2527 G2019S): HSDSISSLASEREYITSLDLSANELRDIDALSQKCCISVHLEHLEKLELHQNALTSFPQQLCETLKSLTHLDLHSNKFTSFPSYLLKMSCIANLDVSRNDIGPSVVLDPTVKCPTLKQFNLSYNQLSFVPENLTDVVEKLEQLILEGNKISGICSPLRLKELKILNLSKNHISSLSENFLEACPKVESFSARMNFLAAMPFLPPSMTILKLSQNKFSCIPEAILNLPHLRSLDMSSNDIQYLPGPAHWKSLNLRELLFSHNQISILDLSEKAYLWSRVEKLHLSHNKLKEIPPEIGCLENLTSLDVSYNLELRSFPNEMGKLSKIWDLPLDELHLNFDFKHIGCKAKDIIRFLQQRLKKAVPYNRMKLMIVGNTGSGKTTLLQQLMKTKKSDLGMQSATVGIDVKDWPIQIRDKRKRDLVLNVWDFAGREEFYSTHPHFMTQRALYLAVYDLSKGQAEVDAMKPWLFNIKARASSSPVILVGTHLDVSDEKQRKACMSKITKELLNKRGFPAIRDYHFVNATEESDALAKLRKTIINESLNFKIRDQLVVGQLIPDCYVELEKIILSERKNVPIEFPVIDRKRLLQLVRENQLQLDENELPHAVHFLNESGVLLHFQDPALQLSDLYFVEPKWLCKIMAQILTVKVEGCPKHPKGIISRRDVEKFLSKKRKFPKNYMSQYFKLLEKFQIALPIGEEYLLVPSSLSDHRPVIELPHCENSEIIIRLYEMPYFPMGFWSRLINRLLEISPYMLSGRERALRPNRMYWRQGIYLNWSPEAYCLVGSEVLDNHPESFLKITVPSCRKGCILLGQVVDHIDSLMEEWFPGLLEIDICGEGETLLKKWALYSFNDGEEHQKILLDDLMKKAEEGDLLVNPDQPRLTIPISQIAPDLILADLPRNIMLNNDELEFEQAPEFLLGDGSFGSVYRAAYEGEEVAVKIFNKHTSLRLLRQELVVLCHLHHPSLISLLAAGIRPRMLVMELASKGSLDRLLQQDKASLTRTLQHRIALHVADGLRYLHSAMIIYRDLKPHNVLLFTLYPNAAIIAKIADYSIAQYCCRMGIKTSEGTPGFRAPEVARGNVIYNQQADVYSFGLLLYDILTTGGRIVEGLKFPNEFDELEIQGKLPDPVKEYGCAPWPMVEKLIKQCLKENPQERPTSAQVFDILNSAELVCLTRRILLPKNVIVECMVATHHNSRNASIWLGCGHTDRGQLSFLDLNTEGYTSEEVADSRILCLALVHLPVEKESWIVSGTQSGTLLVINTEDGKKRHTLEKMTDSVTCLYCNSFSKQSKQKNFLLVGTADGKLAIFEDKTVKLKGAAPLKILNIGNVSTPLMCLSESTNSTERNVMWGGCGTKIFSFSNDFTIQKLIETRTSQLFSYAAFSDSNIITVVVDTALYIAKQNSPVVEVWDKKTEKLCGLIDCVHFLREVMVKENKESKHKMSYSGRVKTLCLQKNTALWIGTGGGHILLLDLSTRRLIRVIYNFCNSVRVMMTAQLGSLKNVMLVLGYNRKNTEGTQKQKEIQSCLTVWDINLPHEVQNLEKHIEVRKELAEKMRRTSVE
Test: LRRK2 Km ATP LanthaScreen Assay
Conditions: mean IC50 of several test results
Structures can show the parent of a compound that is named as a salt.
experimental readout: log10 IC50 (log10 of the value in nM)
Parameter value (number): base-10 log of IC50 in nM.

Which measured log10 IC50 value corresponds to CO[C@H]1CN(c2cc(-n3ncc4ccc(-c5cnn(C)c5)cc43)ccn2)C[C@@H]1O ?
2.60

Which measured log10 IC50 value corresponds to CC(C)Oc1ccc2cnn(-c3ccnc(N4CC[C@H](F)C4)c3)c2c1 ?
2.98

Which measured log10 IC50 value corresponds to Cn1cc(-c2ccc3cnn(-c4ccnc(N5CCCCC5)c4)c3c2)cn1 ?
2.15

Which measured log10 IC50 value corresponds to c1ccc2c(c1)cnn2-c1ccnc(N2CCOCC2)c1 ?
2.80

Which measured log10 IC50 value corresponds to c1cncc(-c2ccc3cnn(-c4cc(N5CCOCC5)ncn4)c3c2)c1 ?
2.11

Which measured log10 IC50 value corresponds to C[C@H]1CN(c2cc(-n3ncc4ccc(-c5cnn(C)c5)cc43)ccn2)CCO1 ?
2.15

Which measured log10 IC50 value corresponds to CN1CCN(c2cc(-n3ncc4ccc(-c5cnn(C)c5)cc43)ccn2)CC1=O ?
2.10

Which measured log10 IC50 value corresponds to Cn1cc(-c2ccc3cnn(-c4ccnc(N5CCN(c6ccncn6)CC5)c4)c3c2)cn1 ?
1.99

Which measured log10 IC50 value corresponds to CC(C)Oc1ccc2cnn(-c3ccnc(N4CC(C(C)(C)O)C4)c3)c2c1 ?
2.62

Which measured log10 IC50 value corresponds to Cn1cc(-c2ccc3cnn(-c4ccnc(N5CC[C@H](F)C5)c4)c3c2)cn1 ?
2.03

Which measured log10 IC50 value corresponds to CCc1nnc2n1CCN(c1cc(-n3ncc4ccc(-c5cnn(C)c5)cc43)ccn1)C2 ?
2.34

Which measured log10 IC50 value corresponds to CC(C)Oc1ccc2cnn(-c3ccnc(N4CCn5ccnc5C4)c3)c2c1 ?
2.65

Which measured log10 IC50 value corresponds to CC(C)Oc1ccc2cnn(-c3ccnc(N4C[C@@H](C)O[C@@H](C)C4)c3)c2c1 ?
2.39

Which measured log10 IC50 value corresponds to CC(C)Oc1ccc2cnn(-c3ccnc(N4CCOCC4)c3)c2c1 [Example 4, hydrochloride] ?
2.09

Which measured log10 IC50 value corresponds to Cn1cc(-c2ccc3cnn(-c4cc(N5CCOCC5)ncn4)c3c2)cn1 ?
1.90

Which measured log10 IC50 value corresponds to CC(C)Oc1ccc2cnn(-c3ccnc(N4CCCC4)c3)c2c1 ?
2.36

Which measured log10 IC50 value corresponds to Cn1cc(-c2ccc3cnn(-c4ccnc(N5CC[C@@H](F)C5)c4)c3c2)cn1 ?
1.95

Which measured log10 IC50 value corresponds to c1nc(N2CCOCC2)cc(-n2ncc3ccc(-c4cn[nH]c4)cc32)n1 ?
1.89

Which measured log10 IC50 value corresponds to Cn1cc(-c2ccc3cnn(-c4ccnc(N5CCC(O)CC5)c4)c3c2)cn1 ?
2.00

Which measured log10 IC50 value corresponds to Cn1cc(-c2ccc3cnn(-c4ccnc(N5CC(F)C5)c4)c3c2)cn1 ?
2.16

Which measured log10 IC50 value corresponds to Cn1cc(-c2ccc3cnn(-c4cc(N5CCN(S(C)(=O)=O)CC5)ncn4)c3c2)cn1 ?
2.50

Which measured log10 IC50 value corresponds to Cn1cc(-c2ccc3cnn(-c4ccnc(N5CCC(C)(O)C5)c4)c3c2)cn1 (stereo not drawn) ?
2.12

Which measured log10 IC50 value corresponds to CS(=O)(=O)N1CCN(c2cc(-n3ncc4ccc(-c5cn[nH]c5)cc43)ncn2)CC1 ?
1.83

Which measured log10 IC50 value corresponds to CC(C)Oc1ccc2cnn(-c3ccnc(N4CCOC(CCO)C4)c3)c2c1 (stereo not drawn) ?
2.61
